- experimentSummary: Elimination half life in Syrian golden hamster sebaceous gland at 0.2% administered topically after 8 hrs
- Format: ADME, tissue-based, Mesocricetus auratus
- condition: topical or ocular, read-out: beta t1/2 (converted)
propertyLabel: half-life (h)

* CC1(C)CN(Cc2ccccc2)C(=O)[C@@H]1Oc1ccc(C#N)c(C(F)(F)F)c1 | 7

====

- experimentSummary: Binding affinity to thyroid hormone receptor
pIC50: −log10 of the molar value.
propertyLabel: pIC50

* CC1(C)CN(Cc2ccccc2)C(=O)[C@@H]1Oc1ccc(C#N)c(C(F)(F)F)c1 | < 5.00

====

- experimentSummary: Clearance in rat at 1 mg/kg, iv
- Format: ADME, organism-based
- Set-up: dose 1 mg/kg, route intravenous
- condition: in vivo
propertyLabel: clearance

* CC1(C)CN(Cc2ccccc2)C(=O)[C@@H]1Oc1ccc(C#N)c(C(F)(F)F)c1 | 57 mL/min/kg

====

- experimentSummary: Octanol-buffer partition coefficient, log D at pH 7.4
- Type: physicochemical
- condition: read-out: LogD7.4
This listing pairs compounds with measured logD.
propertyLabel: logD

* CC1(C)CN(Cc2ccccc2)C(=O)[C@@H]1Oc1ccc(C#N)c(C(F)(F)F)c1 | 4.88
* CCCN1CC(C)(C)[C@@H](Oc2ccc(C#N)c(C(F)(F)F)c2)C1=O | 3.33
* C[C@H](O)CC[C@H](C)Oc1ccc(C#N)c(C(F)(F)F)c1 | 3.73
* N#Cc1ccc(O[C@@H]2CCCC[C@H]2C#N)cc1C(F)(F)F | 3.4

====

- tgt: UniProt:P10275
- Sequence (P10275 whole entry): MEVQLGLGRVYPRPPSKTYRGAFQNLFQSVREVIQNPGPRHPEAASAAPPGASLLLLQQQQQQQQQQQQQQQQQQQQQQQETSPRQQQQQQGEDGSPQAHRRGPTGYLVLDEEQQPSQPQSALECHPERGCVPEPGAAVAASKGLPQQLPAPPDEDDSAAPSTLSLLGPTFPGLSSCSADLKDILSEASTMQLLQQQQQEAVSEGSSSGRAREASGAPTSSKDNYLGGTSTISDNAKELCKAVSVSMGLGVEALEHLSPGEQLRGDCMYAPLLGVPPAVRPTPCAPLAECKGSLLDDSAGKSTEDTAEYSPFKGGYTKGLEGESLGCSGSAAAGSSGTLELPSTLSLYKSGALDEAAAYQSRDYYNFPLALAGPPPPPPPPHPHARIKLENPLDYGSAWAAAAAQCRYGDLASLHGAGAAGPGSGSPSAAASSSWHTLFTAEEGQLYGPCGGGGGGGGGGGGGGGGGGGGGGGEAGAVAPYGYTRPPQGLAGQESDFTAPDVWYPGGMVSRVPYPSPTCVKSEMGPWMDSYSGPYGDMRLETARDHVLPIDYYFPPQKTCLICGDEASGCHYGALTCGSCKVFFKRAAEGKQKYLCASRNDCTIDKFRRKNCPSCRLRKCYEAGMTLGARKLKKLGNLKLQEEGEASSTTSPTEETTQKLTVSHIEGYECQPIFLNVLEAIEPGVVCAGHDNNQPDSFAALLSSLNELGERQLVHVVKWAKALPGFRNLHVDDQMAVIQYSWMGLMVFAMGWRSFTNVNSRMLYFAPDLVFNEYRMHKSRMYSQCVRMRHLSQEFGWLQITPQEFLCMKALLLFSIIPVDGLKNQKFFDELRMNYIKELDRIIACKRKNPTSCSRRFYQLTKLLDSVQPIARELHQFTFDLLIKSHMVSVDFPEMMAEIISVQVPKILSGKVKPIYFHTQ
- experimentSummary: Displacement of [3H]DHT from human AR expressed in baculovirus Sf9 cells system by scintillation counting
pIC50: −log10 of the molar value.
This listing pairs molecules with measured pIC50.
propertyLabel: pIC50

• N#Cc1ccc(Oc2ccc(F)cc2F)cc1C(F)(F)F = 6.31
• CC1(C)CN(Cc2ccccc2F)C(=O)[C@@H]1Oc1ccc(C#N)c(C(F)(F)F)c1 = 6.76
• CSc1ccc(CN2CC(C)(C)[C@@H](Oc3ccc(C#N)c(C(F)(F)F)c3)C2=O)cc1 = 6.50
• CC1(C)CN(Cc2ccccc2)C(=O)[C@@H]1Oc1ccc(C#N)c(C(F)(F)F)c1 = 7.00

====

- experimentSummary: Clearance in human
- Format: ADME, organism-based
- condition: in vivo
propertyLabel: clearance (mL/min/kg)

* CC1(C)CN(Cc2ccccc2)C(=O)[C@@H]1Oc1ccc(C#N)c(C(F)(F)F)c1 | 16

====

- experimentSummary: Intrinsic clearance in human liver microsomes after 1 hr by LC/MS/MS method
- Format: ADME, Microsome
propertyLabel: CLint scaled (mL/min/kg)

- CC1(C)CN(Cc2ccccc2)C(=O)[C@@H]1Oc1ccc(C#N)c(C(F)(F)F)c1: 121

====

- System: Syrian golden hamster
- experimentSummary: Inhibition of wax ester in Syrian golden hamster ear model for sebum at 1% administered topically BID 5 days a week for 2 weeks measured 18 to 24 hrs after the final dose
- Format: functional, Mesocricetus auratus
propertyLabel: inhibition (INH) (%)

• N#Cc1ccc(Oc2ccc(F)cc2F)cc1C(F)(F)F = 31
• CC1(C)CN(Cc2ccccc2)C(=O)[C@@H]1Oc1ccc(C#N)c(C(F)(F)F)c1 = 78
• CC1(C)CN(Cc2ccccc2F)C(=O)[C@@H]1Oc1ccc(C#N)c(C(F)(F)F)c1 = 72
• N#Cc1ccc(Sc2ccccc2F)cc1C(F)(F)F = 64
